- TEST: inhibitors of E-selectin induction by TNFa, primary screen, imaging, HUVEC, immunofluorescence, MLSMR starter and 10KST1 sets (AID 487);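 further: 100% = median nuclei count of all wells on the same plate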
- CONDITIONS: HUVEC TNFalpha-induced E-selectin immunofluorescence imaging, at 2 µM; measured here: cell number, toxicity
PROPERTY LABEL: nuclei count (%)

[[record]]
smiles_str = "Cc1cccc(-n2ncc3c(NCCN4CCOCC4)ncnc32)c1"
readout_number = 156

[[record]]
smiles_str = "Cn1nc(CC(=O)Nc2ccc(N3CCN(C(=O)OC(C)(C)C)CC3)cc2)c2ccccc2c1=O"
readout_number = 99

[[record]]
smiles_str = "O=c1[nH]c2sc3c(c2c2nncn12)CCCC3"
readout_number = 111

[[record]]
smiles_str = "CC(=O)Nc1ccc(S(=O)(=O)N2CCC(NC(C)=O)(c3cccc(F)c3)CC2)cc1"
readout_number = 109

[[record]]
smiles_str = "O=c1cc(-c2ccco2)nc(-c2cccs2)o1"
readout_number = 99.4

[[record]]
smiles_str = "O=P(O)(CCc1ccccc1)CN1CCCCC1"
readout_number = 108

